Experiment: in vitro
Format: in vitro ADME
Settings: human, Caco-2
Measurement Label: Papp B→A at 90 min (nm/s)
Enter your answer as a number in nm/s; do not include the unit.

Query: Can you share its Papp B→A at 90 min? I mean this compound: CCC(=O)OC[C@H]1O[C@@](C#N)(c2ccc3c(NC(=O)[C@@H](N)C(C)C)ncnn23)[C@H](O)[C@@H]1O [Compound 115]
Response: 17

Query: Can you share its Papp B→A at 90 min? I mean this compound: CC(C)CC(=O)OC[C@H]1O[C@@](C#N)(c2ccc3c(NC(=O)c4ccccc4)ncnn23)[C@H](O)[C@@H]1O [Compound 109]
Response: 13

Query: Can you share its Papp B→A at 90 min? I mean this compound: CCCC(=O)Nc1ncnn2c([C@]3(C#N)O[C@H](COC(=O)CC4(N)CCCCC4)[C@@H](O)[C@H]3O)ccc12 [Compound 354]
Response: 30

Query: Can you share its Papp B→A at 90 min? I mean this compound: CNc1nc(N)nc2c1ncn2[C@@H]1O[C@H](COC(=O)CC2CCCCC2)[C@@H](OC(=O)C(C)C)[C@@]1(C)F [Compound 223]
Response: 69

Query: Can you share its Papp B→A at 90 min? I mean this compound: CCCCCOC(=O)Nc1ncnn2c([C@]3(C#N)O[C@H](COC(=O)[C@@H](N)C(C)C)[C@@H](O)[C@H]3O)ccc12 [Compound 86]
Response: 110

Query: Can you share its Papp B→A at 90 min? I mean this compound: CC(C)C(=O)OC[C@H]1O[C@@](C#N)(c2ccc3c(NC(=O)[C@@H](N)Cc4ccc(F)cc4)ncnn23)[C@H](O)[C@@H]1O [Compound 100]
Response: 27

* * *

Experiment: in vitro
Assay type: in vitro ADME
Details: human; Caco-2 monolayer, basolateral to apical, 90-minute incubation; read-out: Papp, B-A
Would you mind telling me the reported Papp B→A at 90 min of each entry?
Enter your answer as a number in ×10⁻⁶ cm/s; do not include the unit.

Query: Can you share its Papp B→A at 90 min? I mean this compound: N#C[C@@]1(c2ccc3c(N)ncnn23)O[C@H](COC(=O)Cc2ccccc2)[C@@H](O)[C@H]1O
Response: 8.9

Query: Can you share its Papp B→A at 90 min? I mean this compound: CC(C)[C@H](N)C(=O)Nc1ncnn2c([C@]3(C#N)O[C@H](COC(=O)Cc4ccccc4)[C@@H](O)[C@H]3O)ccc12
Response: 4.8

Query: Can you share its Papp B→A at 90 min? I mean this compound: CCC(=O)OC[C@H]1O[C@@H](n2cnc3c(NC)nc(N)nc32)[C@](C)(F)[C@@H]1O
Response: 7.6

Query: Can you share its Papp B→A at 90 min? I mean this compound: CCC(=O)O[C@H]1[C@@H](O)[C@](C#N)(c2ccc3c(N)ncnn23)O[C@@H]1COC(=O)Cc1ccccc1
Response: 5.1

Query: Can you share its Papp B→A at 90 min? I mean this compound: CC(=O)O[C@H]1[C@@H](O)[C@](C#N)(c2ccc3c(N)ncnn23)O[C@@H]1COC(=O)Cc1ccccc1
Response: 3.4

Query: Can you share its Papp B→A at 90 min? I mean this compound: CCCCCOC(=O)Nc1ncnn2c([C@]3(C#N)O[C@H](COC(=O)CC)[C@@H](O)[C@H]3O)ccc12
Response: 4.1

Query: Can you share its Papp B→A at 90 min? I mean this compound: CCC(=O)OC[C@H]1O[C@@](C#N)(c2ccc3c(NC(=O)c4ccccc4)ncnn23)[C@H](O)[C@@H]1O
Response: 7.5

* * *

Assay: in vitro
Format: in vitro ADME
Details: human, Caco-2
Measurement Label: Papp A→B at 90 min (×10⁻⁶ cm/s)
Enter your answer as a number in ×10⁻⁶ cm/s; do not include the unit.

Query: Can you share its Papp A→B at 90 min? I mean this molecule: CCCCCOC(=O)Nc1ncnn2c([C@]3(C#N)O[C@H](COC(=O)[C@@H](N)C(C)C)[C@@H](O)[C@H]3O)ccc12 [Compound 86]
Response: 0.33

Query: Can you share its Papp A→B at 90 min? I mean this molecule: CC(C)[C@H](N)C(=O)O[C@H]1[C@@H](O)[C@](C#N)(c2ccc3c(N)ncnn23)O[C@@H]1COC(=O)CC1CCCCC1 [Compound 27]
Response: 0.1

Query: Can you share its Papp A→B at 90 min? I mean this molecule: CC(C)(C)C(=O)OCOC(=O)Nc1ncnn2c([C@]3(C#N)O[C@H](COC(=O)[C@@H](N)C(C)(C)C)[C@@H](O)[C@H]3O)ccc12 [Compound 395]
Response: 0.01

Query: Can you share its Papp A→B at 90 min? I mean this molecule: CCC(=O)OC[C@H]1O[C@@H](n2cnc3c(NC)nc(N)nc32)[C@](C)(F)[C@@H]1OC(C)=O [Compound 220]
Response: 20

Query: Can you share its Papp A→B at 90 min? I mean this molecule: CC(C)(C)C(=O)OCOC(=O)Nc1ncnn2c([C@]3(C#N)O[C@H](CO)[C@@H](OC(=O)CC4CCCCC4)[C@H]3O)ccc12 [Compound 370]
Response: 0.3

Query: Can you share its Papp A→B at 90 min? I mean this molecule: CC(C)[C@H](N)C(=O)Nc1ncnn2c([C@]3(C#N)O[C@H](CO)[C@@H](OC(=O)CC4CCCCC4)[C@H]3O)ccc12 [Compound 139]
Response: 0.18

Query: Can you share its Papp A→B at 90 min? I mean this molecule: CC(C)C(=O)O[C@H]1[C@@H](O)[C@](C#N)(c2ccc3c(N)ncnn23)O[C@@H]1COC(=O)CC1CCCCC1 [Compound 30]
Response: 7.3

Query: Can you share its Papp A→B at 90 min? I mean this molecule: N#C[C@@]1(c2ccc3c(N)ncnn23)O[C@H](COC(=O)CC2CCCCC2)[C@@H](O)[C@H]1O [Compound 10]
Response: 3

Query: Can you share its Papp A→B at 90 min? I mean this molecule: N#C[C@@]1(c2ccc3c(NC(=O)[C@@H](N)Cc4ccc(F)cc4)ncnn23)O[C@H](COC(=O)CC2(N)CCCCC2)[C@@H](O)[C@H]1O [Compound 352]
Response: 0.25

Query: Can you share its Papp A→B at 90 min? I mean this molecule: N#C[C@@]1(c2ccc3c(N)ncnn23)O[C@H](COC(=O)CC2CC2)[C@@H](O)[C@H]1O [Compound 258]
Response: 0.09

Query: Can you share its Papp A→B at 90 min? I mean this molecule: CC(=O)OCOC(=O)Nc1ncnn2c([C@]3(C#N)O[C@H](COC(=O)CC4CCCCC4)[C@@H](OC(=O)[C@@H](N)C(C)C)[C@H]3O)ccc12 [Compound 358]
Response: 0.3

Query: Can you share its Papp A→B at 90 min? I mean this molecule: CCCCC(=O)Nc1ncnn2c([C@]3(C#N)O[C@H](COC(=O)C(C)C)[C@@H](O)[C@H]3O)ccc12 [Compound 276]
Response: 0.36

Query: Can you share its Papp A→B at 90 min? I mean this molecule: N#C[C@@]1(c2ccc3c(NC(=O)c4ccccc4)ncnn23)O[C@H](CO)[C@@H](OC(=O)CC2CCCCC2)[C@H]1O [Compound 342]
Response: 1.1

* * *

Would you mind telling me the reported Papp A→B at 90 min of each entry?
Assay: in vitro
Assay type: in vitro ADME
Conditions: human, Caco-2

Query: Can you share its Papp A→B at 90 min? I mean this molecule: C[C@H]1CC[C@H](CC(=O)OC[C@H]2O[C@@](C#N)(c3ccc4c(N)ncnn34)[C@H](O)[C@@H]2O)CC1
Response: 2.2 ×10⁻⁶ cm/s

Query: Can you share its Papp A→B at 90 min? I mean this molecule: CCC(=O)Nc1nc(NC)c2ncn([C@@H]3O[C@H](COC(C)=O)[C@@H](O)[C@@]3(C)F)c2n1
Response: 0.54 ×10⁻⁶ cm/s

Query: Can you share its Papp A→B at 90 min? I mean this molecule: CNc1nc(N)nc2c1ncn2[C@@H]1O[C@H](COC(=O)C(C)C)[C@@H](O)[C@@]1(C)F
Response: 1.8 ×10⁻⁶ cm/s

Query: Can you share its Papp A→B at 90 min? I mean this molecule: CC(C)CC(=O)OC[C@H]1O[C@@](C#N)(c2ccc3c(N)ncnn23)[C@H](O)[C@@H]1OC(=O)CC1CCCCC1
Response: 16 ×10⁻⁶ cm/s

* * *

Assay: in vitro
Format: in vitro ADME
Conditions: human, Caco-2
Decision: Papp A→B at 90 min >= 30 nm/s yields yes, all other cases yield no.

Query: Quick check: does CCC(=O)OC[C@H]1O[C@@](C#N)(c2ccc3c(N)ncnn23)[C@H](O)[C@@H]1OC(=O)CC1CCCCC1 have Papp A→B at 90 min greater than or equal to 30 nm/s?
Response: no

Query: Quick check: does CCCCOC(=O)Nc1ncnn2c([C@]3(C#N)O[C@H](COC(=O)C(C)(C)C4CCCCC4)[C@@H](O)[C@H]3O)ccc12 have Papp A→B at 90 min greater than or equal to 30 nm/s?
Response: no

Query: Quick check: does CC(C)C(=O)OC[C@H]1O[C@@](C#N)(c2ccc3c(NC(=O)[C@@H](N)C(C)C)ncnn23)[C@H](O)[C@@H]1O have Papp A→B at 90 min greater than or equal to 30 nm/s?
Response: no

Query: Quick check: does N#C[C@@]1(c2ccc3c(N)ncnn23)O[C@H](COC(=O)CC2CCC(C(F)(F)F)CC2)[C@@H](O)[C@H]1O (stereo partly shown) have Papp A→B at 90 min greater than or equal to 30 nm/s?
Response: no

Query: Quick check: does CC(C)C(=O)OC[C@H]1O[C@@](C#N)(c2ccc3c(N)ncnn23)[C@H](O)[C@@H]1O have Papp A→B at 90 min greater than or equal to 30 nm/s?
Response: no

Query: Quick check: does N#C[C@@]1(c2ccc3c(N)ncnn23)O[C@H](COC(=O)CC23CC4CC(CC(C4)C2)C3)[C@@H](O)[C@H]1O have Papp A→B at 90 min greater than or equal to 30 nm/s?
Response: yes

Query: Quick check: does CNc1nc(N)nc2c1ncn2[C@@H]1O[C@H](COC(=O)C(C)C)[C@@H](OC(=O)C(C)C)[C@@]1(C)F have Papp A→B at 90 min greater than or equal to 30 nm/s?
Response: yes
